# Test system: Mus musculus
# ASSAY PROCEDURE: Compound was tested for the lowest dose which protected half of the mice in pentylenetetrazole seizure test 0.5 hr after ip administration of the compound
# Format: functional
QUANTITY NAME: scMet (mg/kg)
Expressed in mg/kg, but write only the number.

The recorded scMet for entry C[C@H]1CC[C@H](O)C([C@H](O)CC2CC(=O)NC(=O)C2)C1 (some centres not stated) equals 30

The recorded scMet for entry C[C@H]1CC([C@H](O)CC2CC(=O)NC(=O)C2)[C@@H](O)[C@@H](C)C1 (some centres not stated) equals 100

The recorded scMet for entry O=C1CC(CC(=O)C2CCCCC2=O)C(=O)N1 (configuration not stated) equals 600

The recorded scMet for entry O=C1CC(CC(=O)C2CCCCC2=O)CC(=O)N1 (configuration not stated) equals 600

The recorded scMet for entry O=C1CC(C[C@@H](O)C2CCCC[C@@H]2O)CC(=O)N1 (some centres not stated) equals 600

The recorded scMet for entry C[C@@H]1CC(C(=O)CC2CC(=O)N(C)C(=O)C2)C(=O)[C@@H](C)C1 (some centres not stated) equals 600

The recorded scMet for entry C[C@@H]1CCC(=O)C(C(=O)CC2CC(=O)NC2=O)C1 (some centres not stated) equals 600
